I'd be grateful if you could share measured apparent KD of K4 kissing-loop reporter for these entries.
Tested on: K4 kissing-loop RNA reporter;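 also: bound reporter read as fluorescence of individual clusters on recovered sequencing chips by microscopy, with normalized cluster intensities fitted with a binding model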
Assay: apparent KD of K4 kissing-loop reporter; higher = weaker reporter binding
Conditions: Eterna round: R107; input ligand: arginine 13.2 mM
Answers are plain numbers, in nM.

Here are 3 sequences together with their reported answers.
CACGGAGUGAUGUUCCGACCGAGGAACGAUACCAGACAAGUAUACGUCCCUUGGCAGCGUUUCUUAUAUAGUCAACGUUACCGUA [Theo A Ex t3] ... 469
GAUUUAGAGGCGGCCGCCACUAGUGAUGUUAGUGAUGUUUGAUACUGUAUAUAUCGGCGUGUAGAUAGGACCGGGCCUGAUGGAG [drrdmullin] ... 176
GGAUAGGACACAGGAUAUGGGCUAGGCAAGAAUAACUUGUCUAGCAAAUCCAUGAGGAGUGAUGUUCCAGAAGGGUGUCCUAUCG [FmnBX 1 C11+G75] ... 111

Batch request: apparent KD of K4 kissing-loop reporter for each of the following sequences.
1. UAUUCUUAUCUUAGUUGAUUUCUAAUUAAACGAGGACCGGUACGGCCGCCACUCGGUUAUGAGUGAUGUUCAUGGAAUUACAUAA [JR_SSTryptoA_Sub020]
2. GGAGUUACCUGGGAUACCAGUCGGAGGCCCAGAGCUCGGAGUGAUGUUCUGGGAUGUUUCGGCCCUUGGCAGCUCUGGGUCUCCG [#2 Exclusion - Theophylline B Attempt #4 (HarryS)]
3. UACUAUAGUGAUGUUAUAGAUAAACCAGAUACCAGUGUGACAUAACACCCUUGGCAGCUGAUAAGGGAACAUAUGAAAACAUAUG [AstroSSTHeAED5.17]

1: 481; 2: 452; 3: 120

###

Tested on: MS2 coat protein
Assay: apparent KD of MS2 coat protein; higher = weaker reporter binding
Conditions: Eterna round: R107; input ligand: theophylline 20 uM
ASSAY READOUT: apparent KD of MS2 coat protein (nM)
Give bare numbers, in nM.

AUCGUACCUGAUGAUACCAGCAUGUGAUCAUAACAUGAGGAUCACCCAUGUAAUCAGUGAUGCCCUUGGCAGCAUAGUCGAUACA [Same State - Theophylline B (Freestyle 6)] ... 174
ACCUCAUGUAGAAGGAGCGUCAGAAGCUACAGACAUGAGGAUCACCCAUGUUAGUUGAUCUGACAGGUAGGUCGCUACAGCAGGA [#23 Same State - Arginine B] ... 43.9
AGCGGAACGGAAGGGUCCCGAAAUUGUGAUACCAGCCUUGAAUCCGGCCCUUGGCAGCACAUGAGGAUCACCCAUGUACUGCGGU [Arimaed] ... 20.7
UGACGAGGCCUGGAUACCAGCGACAUGAGGAUCACCCAUGUAUGAGGAUCAGCCAUGUUAUGCCCUUGGCAGCCACGAAGGUCAG [WQQMULLIN] ... 38.2
UAUAUAUAUAUUGAUACCAGCAGAGAAAACGUAUAUCCUAACAUGAGGAUCACCCAUGUAUGCCCUUGGCAGCGAUAUAUAUAUA [8.B] ... 31

Now look at this entry.
Entry ACCUGUACGAAAAGUGCAGGACACGGAAUACGAGGACCGGUACGGCCGCCACUCGGAAAACCUGAGGAUCACCCUGGUAACCGUG [TrypAS 11 #AlternativeMS2 #Zipper #StaticStem] ; apparent KD of MS2 coat protein = 22.3

Values were extracted from the supplement of paper PMC9170038.
